- Tested on: wheat (Triticum aestivum)
- PROTOCOL_SUMMARY: Test A1 postemergence, wheat
- Format: in vivo
- COND: Postemergence, 31 g ai/ha; 0 to 100 scale (0 no effect, 100 complete control); 10 days

[
  {
    "MOLECULE": "CCC1ON=C(c2cc(N(COC(=O)C(C)(C)C)S(=O)(=O)C(F)(F)F)c(C)cc2C)C1CC (stereo not drawn) [Compound 347]",
    "Plant response rating, Wheat": 0
  },
  {
    "MOLECULE": "Cc1cc(C)c(N(COC(=O)N(C)C)S(=O)(=O)C(F)(F)F)cc1C1=NOC2CCCC12 (stereo not drawn) [Compound 317]",
    "Plant response rating, Wheat": 0
  },
  {
    "MOLECULE": "Cc1cc(C)c(C2=NOC3(C)CCCC23)cc1NS(=O)(=O)C(F)(F)F (stereo not drawn) [Compound 340]",
    "Plant response rating, Wheat": 50
  },
  {
    "MOLECULE": "COc1cnn(-c2cc(NS(=O)(=O)C(F)(F)F)c(C)cc2C)c(=O)c1OC [Compound 282]",
    "Plant response rating, Wheat": 60
  },
  {
    "MOLECULE": "Cc1c(C(=O)N2CCC(Cl)CC2)cc(N(COC(=O)C(C)(C)C)S(=O)(=O)C(F)(F)F)c(C)c1C [Compound 359]",
    "Plant response rating, Wheat": 0
  },
  {
    "MOLECULE": "Cc1cc(C)c(N(COC(=O)C(C)(C)C)S(=O)(=O)C(F)(F)F)cc1C(=O)N1CCC(c2ccccc2)CC1 [Compound 364]",
    "Plant response rating, Wheat": 0
  },
  {
    "MOLECULE": "Cc1c(NS(=O)(=O)C(F)(F)F)cc(C(=O)N(C)C)c(C)c1C [Compound 288]",
    "Plant response rating, Wheat": 0
  },
  {
    "MOLECULE": "Cc1cc(C)c(C2=NOC3OCCC23)cc1NS(=O)(=O)C(F)(F)F (stereo not drawn) [Compound 349]",
    "Plant response rating, Wheat": 30
  },
  {
    "MOLECULE": "COC(=O)OCN(c1cc(C2=NOC3CCCC23)c(C)cc1C)S(=O)(=O)C(F)(F)F (stereo not drawn) [Compound 315]",
    "Plant response rating, Wheat": 30
  },
  {
    "MOLECULE": "Cc1c(NS(=O)(=O)C(F)(F)F)cc(C2=NOC3CCCC23)c(C)c1C (stereo not drawn) [Compound 335]",
    "Plant response rating, Wheat": 0
  },
  {
    "MOLECULE": "Cc1c(NS(=O)(=O)C(F)(F)F)cc(C(=O)N2CCC(F)(F)CC2)c(C)c1C [Compound 357]",
    "Plant response rating, Wheat": 0
  },
  {
    "MOLECULE": "COCC1CC(c2cc(N(COC(=O)C(C)(C)C)S(=O)(=O)C(F)(F)F)c(C)cc2C)=NO1 (stereo not drawn) [Compound 338]",
    "Plant response rating, Wheat": 20
  }
]

---

plant injury at 500 g/ha by entry:
- Tested on: wheat (Triticum aestivum)
- PROTOCOL_SUMMARY: Test A postemergence, wheat
- Format: in vivo
- COND: Triticum aestivum, post-emergence, 240 h; Postemergence, 500 g ai/ha; visual injury vs untreated controls after approx. 10 days; 0 to 100 scale (0 no effect, 100 complete control); read-out: Wheat plant response rating
MEASURED_ATTRIBUTE: plant injury at 500 g/ha (%)

[
  {
    "MOLECULE": "Cc1cc(Cl)c(NS(=O)(=O)C(F)(F)F)cc1C(=O)N1CCC(F)(F)CC1 [Compound 229]",
    "SYSTEM_TESTED": "wheat (Triticum aestivum)",
    "NUMBER": 70
  },
  {
    "MOLECULE": "Cc1cc(C)c(N(COC(=O)C(C)(C)C)S(=O)(=O)C(F)(F)F)cc1C1=NOC2(CCCC2)C1 [Compound 140]",
    "SYSTEM_TESTED": "wheat (Triticum aestivum)",
    "NUMBER": 60
  },
  {
    "MOLECULE": "Cc1cc(C)c(C2=NO[C@@H]3CCC[C@H]23)cc1NS(=O)(=O)C(F)(F)F [Compound 103]",
    "SYSTEM_TESTED": "wheat (Triticum aestivum)",
    "NUMBER": 80
  },
  {
    "MOLECULE": "Cc1cc(C)c(N(COC(=O)C(C)(C)C)S(=O)(=O)C(F)(F)F)cc1C1=NO[C@@H]2CCC[C@H]12 [Compound 100]",
    "SYSTEM_TESTED": "wheat (Triticum aestivum)",
    "NUMBER": 50
  }
]

---

- Test system: barnyardgrass (Echinochloa crus-galli)
- PROTOCOL_SUMMARY: Test A postemergence, barnyardgrass
- Assay type: in vivo
- COND: Postemergence, 500 g ai/ha; visual injury vs untreated controls after approx. 10 days; 0 to 100 scale (0 no effect, 100 complete control)
We begin with a simple list: items and their reported Barnyardgrass plant response rating.

[
  {
    "COMPOUND": "COc1cnn(-c2cc(NS(=O)(=O)C(F)(F)F)c(C)cc2C)c(=O)c1 [Compound 54]",
    "Barnyardgrass plant response rating": 10
  },
  {
    "COMPOUND": "Cc1cc(C)c(C2=NOC3CCCCC23)cc1NS(=O)(=O)C(F)(F)F (racemic) [Compound 125]",
    "Barnyardgrass plant response rating": 90
  },
  {
    "COMPOUND": "Cc1cc(C)c(-n2nccc(C)c2=O)cc1NS(=O)(=O)C(F)(F)F [Compound 84]",
    "Barnyardgrass plant response rating": 80
  },
  {
    "COMPOUND": "CCn1nc(Cl)cc(-c2cc(N(S(C)(=O)=O)S(=O)(=O)C(F)(F)F)c(C)cc2C)c1=O [Compound 45]",
    "Barnyardgrass plant response rating": 70
  },
  {
    "COMPOUND": "Cc1cc(C(F)(F)F)c(C(=O)N2CCCCC2)cc1NS(=O)(=O)C(F)(F)F [Compound 180]",
    "Barnyardgrass plant response rating": 10
  },
  {
    "COMPOUND": "Cc1cc(F)c(C(=O)N2CCCCC2)cc1N(S(=O)(=O)C(F)(F)F)S(=O)(=O)C(F)(F)F [Compound 212]",
    "Barnyardgrass plant response rating": 0
  },
  {
    "COMPOUND": "Cc1cc(C)c(C2=NOC3(CCOCC3)C2)cc1NS(=O)(=O)C(F)(F)F [Compound 177]",
    "Barnyardgrass plant response rating": 90
  },
  {
    "COMPOUND": "Cc1cc(Cl)c(NS(=O)(=O)C(F)(F)F)cc1C1=NOC(C)(C)C1 [Compound 203]",
    "Barnyardgrass plant response rating": 80
  },
  {
    "COMPOUND": "Cc1cc(C)c(-c2ccnn(C)c2=O)cc1NS(=O)(=O)C(F)(F)F [Compound 80]",
    "Barnyardgrass plant response rating": 90
  },
  {
    "COMPOUND": "COC1CCCN(C(=O)c2cc(NS(=O)(=O)C(F)(F)F)c(Cl)cc2C)C1 (centres unmarked) [Compound 146]",
    "Barnyardgrass plant response rating": 80
  },
  {
    "COMPOUND": "CC(=O)N(c1cc(C2=NOC3(CCCC3)C2)c(C)cc1C)S(=O)(=O)C(F)(F)F [Compound 220]",
    "Barnyardgrass plant response rating": 70
  },
  {
    "COMPOUND": "COC1CCCN(C(=O)c2cc(N(S(=O)(=O)C(F)(F)F)S(=O)(=O)C(F)(F)F)c(C)cc2C)C1 (centres unmarked) [Compound 119]",
    "Barnyardgrass plant response rating": 90
  },
  {
    "COMPOUND": "Cc1cc(C)c(C(=O)N2CCC3(CC2)OCCCO3)cc1NS(=O)(=O)C(F)(F)F [Compound 194]",
    "Barnyardgrass plant response rating": 80
  },
  {
    "COMPOUND": "C#CCN(CC#C)C(=O)c1cc(NS(=O)(=O)C(F)(F)F)c(C)cc1C [Compound 187]",
    "Barnyardgrass plant response rating": 90
  },
  {
    "COMPOUND": "Cc1cc(C)c(C2=NOC3(CCC(F)(F)CC3)C2)cc1NS(=O)(=O)C(F)(F)F [Compound 172]",
    "Barnyardgrass plant response rating": 80
  },
  {
    "COMPOUND": "Cc1cc(F)c(C(=O)N2CC(C)OC(C)C2)cc1NS(=O)(=O)C(F)(F)F (centres unmarked) [Compound 238]",
    "Barnyardgrass plant response rating": 60
  },
  {
    "COMPOUND": "Cc1cc(C)c(N(S(=O)(=O)C(F)(F)F)S(=O)(=O)C(F)(F)F)cc1C1=NOC2(CCCCCC2)C1 [Compound 158]",
    "Barnyardgrass plant response rating": 20
  }
]
